For each entry below, report its Gram-positive MIC c value.
Tested on: Staphylococcus Epidermidis
protocolNotes: Antibacterial activity, MIC by double-microdilution method
Assay type: cell-based
settings: Table 2

INPUT: Name the recorded Gram-positive MIC c for O.O=C(O)c1cn(C2CC2)c2cc(N3CCN(Cc4ccc(CN5CCNCCNCCNCC5)cc4)CC3)c(F)cc2c1=O.[Cu+2] [4-Cu(II)] .
OUTPUT: 3 µg/mL

INPUT: One more compound: NCCN1CCNCCNCCN(Cc2ccc(CN3CCN(c4cc5c(cc4F)c(=O)c(C(=O)[O-])cn5C4CC4)CC3)cc2)CC1.[Cu+2] [23-Cu(II)]
OUTPUT: 12 µg/mL

INPUT: Likewise for O.O=C(O)c1cn(C2CC2)c2cc(N3CCN(CCCCCCCN4CCNCCNCCNCC4)CC3)c(F)cc2c1=O.[Cu+2] [2-Cu(II)] ?
OUTPUT: 12 µg/mL

INPUT: Another compound to look at: O.O=C(O)c1cn(C2CC2)c2cc(N3CCN(CCCCCCN4CCNCCNCCNCC4)CC3)c(F)cc2c1=O.[Cu+2] [1-Cu(II)]
OUTPUT: 24 µg/mL

----------
Exercise: state measured Gram-negative MIC b for each of the molecules provided.
Test system: Escherichia coli 25922
protocolNotes: Antibacterial activity, MIC by double-microdilution method
Assay type: cell-based
settings: Table 2; Escherichia coli 25922
Write the value in µg/mL as a bare number.

INPUT: Request the reported Gram-negative MIC b associated with O.O=C(O)c1cn(C2CC2)c2cc(N3CCN(CCCCCCN4CCNCCNCCNCC4)CC3)c(F)cc2c1=O.[Cu+2] [1-Cu(II)]
OUTPUT: 48

INPUT: Field entry: NCCN1CCNCCNCCN(CCCCc2ccc(CN3CCN(c4cc5c(cc4F)c(=O)c(C(=O)O)cn5C4CC4)CC3)cc2)CC1 [Compound 26]
OUTPUT: 12

INPUT: Another molecule to look at: NCCN1CCNCCNCCN(Cc2ccc(CN3CCN(c4cc5c(cc4F)c(=O)c(C(=O)O)cn5C4CC4)CC3)cc2)CC1 [Compound 23]
OUTPUT: 24

INPUT: Query O.O=C(O)c1cn(C2CC2)c2cc(N3CCN(CCCCCCCCN4CCNCCNCCNCC4)CC3)c(F)cc2c1=O.[Co+3].[OH-] [3-Co(III)] next
OUTPUT: 6

----------
subjectOfTest: E. coli DNA gyrase (Escherichia coli, UniProt P0AES4+P0AES6)
protocolNotes: E. coli Gyrase-DNA supercoiling assay
settings: supercoiling of relaxed pHOT-1 plasmid in presence of ATP; 37° C., 60 minutes
Procedure: The DNA supercoiling reactions were based on the manufacturer protocol (TopoGEN). The amount of DNA gyrase used in each assay was optimized by testing various dilutions of the stock. […] Reaction mixtures were stopped by the addition of 30 μL of loading buffer (40% sucrose, 100 mM Tris·HCl (pH 7.5), 1 mM EDTA, 0.5 mg×mL^−1 bromophenol blue) and worked up using 30 μL of 24:1 chloroform/isoamyl alcohol mixture; the aqueous layer was then analyzed using electrophoresis. […]
Give measured pIC50 for each item. Keep answers brief.
Scale explanation: pIC50 corresponds to minus log10 of a concentration expressed in moles per litre.

INPUT: What does the record list as pIC50 for O.O=C(O)c1cn(C2CC2)c2cc(N3CCN(Cc4ccc(CN5CCNCCNCCNCC5)cc4)CC3)c(F)cc2c1=O.[Cu+2] [4-Cu(II)] ?
OUTPUT: 6.85

INPUT: Then what about the compound O=C(O)c1cn(C2CC2)c2cc(N3CCN(Cc4ccc(CCN5CCNCCNCCNCC5)cc4)CC3)c(F)cc2c1=O [Compound 5] ?
OUTPUT: 6.82

INPUT: Subsequent entry: O=C(O)c1cn(C2CC2)c2cc(N3CCN(Cc4ccc(CN5CCNCCNCCNCC5)cc4)CC3)c(F)cc2c1=O [Compound 4]
OUTPUT: 6.82

Provenance of the data: patent US20230357189A1
